test: gradient 5% acetonitrile 3 min, to 50% in 2 min, to 85% in 15 min, held 3 min, 100 µL/min; settings: column: Zorbax Extend-C18 2.1 x 50 mm; eluents: water / acetonitrile, 0.1% formic acid
Each entry below lists one item and its recorded RP-LC retention time value.
measured parameter: RP-LC retention time (s)

compound=Cc1ncsc1CN1CC(Cn2c(C)cnc2-c2ccncc2)C1 measured_parameter="RP-LC retention time" readout_value=818
compound=COc1ccc2[nH]cc(CCNC(=O)CCc3nnc(C(=O)Nc4ccccc4)s3)c2c1 measured_parameter="RP-LC retention time" readout_value=803
compound=CCc1noc(NC(C)=O)c1-c1ccc(C)c(S(=O)(=O)Nc2ccc(F)cc2C)c1 measured_parameter="RP-LC retention time" readout_value=848
compound="COc1ccc(C)cc1N(C)C(=O)C1CCCN(c2ncnc3c2nc2n3CCCCC2)C1 (stereo not given)" measured_parameter="RP-LC retention time" readout_value=869
compound="CC(CCc1ccccc1)NC(C)C(O)c1ccc(O)cc1 (stereo not given)" measured_parameter="RP-LC retention time" readout_value=712
